test: Thermo Scientific Acclaim RSLC 120 C18, 100 × 2.1 mm, 2.2 µm, 30 °C; A: 90% water + 10% methanol + 0.01% formic acid + 5 mM ammonium formate; B: methanol + 0.01% formic acid + 5 mM ammonium formate; gradient (min/%B) 0.1/1 3/39 14/99.9 16/99.9; conditions: stereoisomer not certain
quantity_name: LC retention time (min)
Lab book: enter the figure in min, no units written.

Q. Would you kindly share the measured LC retention time for COc1ccc2c3c1OC1C(=O)CCC4(O)C(C2)N(C)CCC314 (stereo unspecified) ?
A. 3.61

Q. Record: `CCCCNc1ccc(C(=O)OCCN(C)C)cc1`
A. 6.43

Q. Record: `Cc1ncc(CSSCc2cnc(C)c(O)c2CO)c(CO)c1O`
A. 5.54

Q. Record: `CNC(=O)ON=C(C)SC`
A. 4.16

Q. Record: `CCCCCn1cc(C(=O)c2cccc3ccccc23)c2ccc(OC)cc21`
A. 12.4

Q. Record: `CCN(CC)CCOC(=O)C(O)(c1ccccc1)c1ccccc1`
A. 6.08

Q. Record: COc1cc(CC(C)N)c(OC)cc1C (stereo unspecified)
A. 5.83

Q. Record: CCC(C(=O)c1ccc2c(c1)OCO2)N1CCCC1 (stereo unspecified)
A. 4.49

Q. Record: `CN(C)CCOCC(=O)NC12CC3CC(CC(C3)C1)C2`
A. 6.64

Q. Record: `Cc1c(N(C)CS(=O)(=O)O)c(=O)n(-c2ccccc2)n1C`
A. 4.49

Q. Record: CN(C)CCC(c1ccccc1)c1ccccn1 (stereo unspecified)
A. 4.98

Q. Record: `CN(C)CCc1c[nH]c2ccccc12`
A. 3.94

Q. Record: `CC(C)Nc1nc(NC(C)C)[nH]c(=O)n1`
A. 5.96

Q. Record: NN1CC(=O)N2C(Cc3c([nH]c4ccccc34)C2c2ccc3c(c2)OCO3)C1=O (stereo unspecified)
A. 7.84

Q. Record: `CN1CCN(CCCN2c3ccccc3Sc3ccc(S(=O)(=O)N(C)C)cc32)CC1`
A. 8.15

Q. Record: `CCCCCc1cc(O)c2c(c1)OC(C)(C)c1ccc(C)cc1-2`
A. 13.7

Q. Record: `CCCCCn1nc(C(=O)Oc2cccc3cccnc23)c2ccccc21`
A. 11.4

Q. Record: CCN1CCCC1CNC(=O)c1cc(S(=O)(=O)CC)c(N)cc1OC (stereo unspecified)
A. 3.88

Q. Record: CC[N+]1([O-])CCCC1CNC(=O)c1cc(S(=O)(=O)CC)c(N)cc1OC (stereo unspecified)
A. 4.33

Q. Record: CCC(C(=O)c1ccc2c(c1)OCO2)N(C)C (stereo unspecified)
A. 4.38

Q. Record: CC(C)(C)NCC(O)COc1nsnc1N1CCOCC1 (stereo unspecified)
A. 4.88

Q. Record: `Nc1ccc(O)c(C(=O)O)c1`
A. 1.63

Q. Record: `CC(=O)Nc1c(C)n(C)n(-c2ccccc2)c1=O`
A. 3.94

Q. Record: `CC(=O)Nc1nnc(S(N)(=O)=O)s1`
A. 3.43

Q. Record: CCC(=O)OC(OP(=O)(CCCCc1ccccc1)CC(=O)N1CC(C2CCCCC2)CC1C(=O)O)C(C)C (stereo unspecified)
A. 12.4

Q. Record: CN1CCN2c3ncccc3Cc3ccccc3C2C1 (stereo unspecified)
A. 5.29

Q. Record: CC1(C)C(C(=O)OC(C#N)c2cccc(Oc3ccccc3)c2)C1(C)C (stereo unspecified)
A. 12.9

Q. Record: `CNCCC=C1c2ccccc2CCc2ccccc21`
A. 8.51

Q. Record: CC1CCCC(C)N1CCCC(O)(c1ccccc1)c1ccccn1 (stereo unspecified)
A. 6.01

Q. Record: `COP(=S)(OC)Oc1ccc([N+](=O)[O-])c(C)c1`
A. 9.92

Q. Record: `CCCc1cc(C(N)=S)ccn1`
A. 6.36

Q. Record: `CN(C)CCCN1c2ccccc2CCc2ccccc21`
A. 8.08

Q. Record: `CC(C)N1C(=O)c2ccccc2NS1(=O)=O`
A. 5.22

Q. Record: `CC(C)N1C(=O)N(c2ccccc2)CSC1=NC(C)(C)C`
A. 12.2

Q. Record: CNC(C)C1CCC(N)C(OC2C(N)CC(N)C(OC3OCC(C)(O)C(NC)C3O)C2O)O1 (stereo unspecified)
A. 11.6

Q. Record: `CC(=O)N=c1sc(S(N)(=O)=O)nn1C`
A. 4.28

Q. Record: CC1=C(C(=O)O)N2C(=O)C(NC(=O)C(N)c3ccccc3)C2SC1 (stereo unspecified)
A. 4.08

Q. Record: CC(C)CN(CC(O)C(Cc1ccccc1)NC(=O)OC1COC2OCCC12)S(=O)(=O)c1ccc(N)cc1 (stereo unspecified)
A. 8.21

Q. Record: COc1ccc(-c2oc3c(CC=C(C)C)c(OC4OC(CO)C(O)C(O)C4O)cc(O)c3c(=O)c2OC2OC(C)C(O)C(O)C2O)cc1 (stereo unspecified)
A. 8.24

Q. Record: `Cn1c(=O)c2c(ncn2C)n(C)c1=O`
A. 4.23

Q. Record: `CCCCCn1cc(C(=O)N2CCN(C)CC2)c2ccccc21`
A. 7.75

Q. Record: `CCCCCn1cc(C(=O)CC(C)(C)C(C)(C)O)c2ccccc21`
A. 11.6

Q. Record: `NCC1(CC(=O)O)CCCCC1`
A. 3.78

Q. Record: `CCc1nnc(NS(=O)(=O)c2ccc(N)cc2)s1`
A. 4.81

Q. Record: OC(CCN1CCCCC1)(c1ccccc1)C1CC2C=CC1C2 (stereo unspecified)
A. 7.63

Q. Record: `CN(C)S(=O)(=O)c1ccc2c(c1)N(CCCN1CCC(CCO)CC1)c1ccccc1S2`
A. 7.39
